Provenance of the data: paper PMC11678425

system: hSERT P499G (Homo sapiens, UniProt P31645, P499G)
Construct: forward and reverse primers were used to amplify a full-length hSERT; expressed in transfected cells; host or cells: HeLa cells, transient, pcDNA3.1
Sequence (P31645 whole entry P499G): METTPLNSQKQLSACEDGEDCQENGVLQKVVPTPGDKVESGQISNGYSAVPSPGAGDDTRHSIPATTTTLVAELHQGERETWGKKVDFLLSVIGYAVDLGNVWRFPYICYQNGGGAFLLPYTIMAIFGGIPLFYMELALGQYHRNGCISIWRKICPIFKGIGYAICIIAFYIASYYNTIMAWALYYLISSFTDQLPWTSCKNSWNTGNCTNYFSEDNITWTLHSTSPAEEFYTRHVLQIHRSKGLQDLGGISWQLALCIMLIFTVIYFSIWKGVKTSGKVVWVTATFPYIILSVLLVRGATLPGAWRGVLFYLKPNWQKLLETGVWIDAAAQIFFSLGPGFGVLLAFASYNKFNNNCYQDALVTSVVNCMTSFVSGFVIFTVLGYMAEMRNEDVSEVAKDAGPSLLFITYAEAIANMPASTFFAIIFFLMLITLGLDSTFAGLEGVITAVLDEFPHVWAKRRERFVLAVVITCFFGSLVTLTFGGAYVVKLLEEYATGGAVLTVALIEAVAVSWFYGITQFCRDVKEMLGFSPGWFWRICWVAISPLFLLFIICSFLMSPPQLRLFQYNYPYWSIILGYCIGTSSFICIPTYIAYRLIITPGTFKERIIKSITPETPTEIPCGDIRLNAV
protocol_notes: ASP^+ binding, hSERT P499G
cond: S2 site mutant, read-out: SYR IC50 for Binding
pIC50: −log10 of the molar value.
measure: pIC50

COc1cc([C@@H]2OC[C@@H]3[C@H]2CO[C@H]3c2cc(OC)c(O)c(OC)c2)cc(OC)c1O [SYR, (-)-syringaresinol]; 4.33

====

system: hSERT Y579A (Homo sapiens, UniProt P31645, Y579A)
Construct: forward and reverse primers were used to amplify a full-length hSERT; expressed in transfected cells; host or cells: HeLa
protocol_notes: ASP^+ binding, hSERT Y579A
cond: S2 site mutant, read-out: SYR IC50 for Binding
pIC50: −log10 of the molar value.
measure: pIC50

COc1cc([C@@H]2OC[C@@H]3[C@H]2CO[C@H]3c2cc(OC)c(O)c(OC)c2)cc(OC)c1O [SYR, (-)-syringaresinol]; 4.54

====

system: hSERT Y95F (Homo sapiens, UniProt P31645, Y95F)
Construct: forward and reverse primers were used to amplify a full-length hSERT; expressed in transfected cells; host or cells: HeLa
Sequence (P31645 whole entry Y95F): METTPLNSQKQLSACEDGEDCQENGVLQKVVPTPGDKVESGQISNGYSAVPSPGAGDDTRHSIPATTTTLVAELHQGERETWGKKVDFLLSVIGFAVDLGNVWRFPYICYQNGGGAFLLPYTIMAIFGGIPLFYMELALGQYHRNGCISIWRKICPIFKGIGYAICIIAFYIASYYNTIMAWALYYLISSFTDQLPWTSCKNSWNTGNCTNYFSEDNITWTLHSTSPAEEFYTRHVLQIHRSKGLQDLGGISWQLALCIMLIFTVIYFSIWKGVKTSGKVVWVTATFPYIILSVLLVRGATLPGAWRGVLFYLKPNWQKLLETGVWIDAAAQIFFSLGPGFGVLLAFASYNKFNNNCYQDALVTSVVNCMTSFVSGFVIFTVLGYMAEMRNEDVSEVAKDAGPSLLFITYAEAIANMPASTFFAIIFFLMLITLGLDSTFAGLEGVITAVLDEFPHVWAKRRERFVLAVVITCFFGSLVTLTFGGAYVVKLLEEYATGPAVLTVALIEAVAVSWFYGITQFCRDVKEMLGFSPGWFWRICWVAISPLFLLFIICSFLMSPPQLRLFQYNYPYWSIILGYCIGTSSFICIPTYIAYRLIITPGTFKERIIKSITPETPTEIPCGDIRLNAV
protocol_notes: APP^+ uptake, hSERT Y95F
Format: cell-based
cond: S1 site mutant, read-out: SYR IC50 for Transport
Experimental: HeLa cells were cultured in Dulbecco’s Modified Eagle’s Medium supplemented with 10% fetal bovine serum, 100 units/mL penicillin, and 100 μg/mL streptomycin at 37 °C in a humidified 5% CO2 incubator. […] Measurement of transport or ligand binding activity of SERT was performed by using its fluorescent substrate (APP^+) or ligand (ASP^+), respectively. […] APP^+ uptake was measured by adding 100 μL KRH buffer containing 2 μM APP^+ and incubating for 5 min at 22 °C. […]
measure: IC50 (nM)

COc1cc([C@@H]2OC[C@@H]3[C@H]2CO[C@H]3c2cc(OC)c(O)c(OC)c2)cc(OC)c1O [SYR, (-)-syringaresinol]; 2640

====

system: hSERT P561G (Homo sapiens, UniProt P31645, P561G)
Construct: forward and reverse primers were used to amplify a full-length hSERT; expressed in transfected cells; host or cells: HeLa
Sequence (P31645 whole entry P561G): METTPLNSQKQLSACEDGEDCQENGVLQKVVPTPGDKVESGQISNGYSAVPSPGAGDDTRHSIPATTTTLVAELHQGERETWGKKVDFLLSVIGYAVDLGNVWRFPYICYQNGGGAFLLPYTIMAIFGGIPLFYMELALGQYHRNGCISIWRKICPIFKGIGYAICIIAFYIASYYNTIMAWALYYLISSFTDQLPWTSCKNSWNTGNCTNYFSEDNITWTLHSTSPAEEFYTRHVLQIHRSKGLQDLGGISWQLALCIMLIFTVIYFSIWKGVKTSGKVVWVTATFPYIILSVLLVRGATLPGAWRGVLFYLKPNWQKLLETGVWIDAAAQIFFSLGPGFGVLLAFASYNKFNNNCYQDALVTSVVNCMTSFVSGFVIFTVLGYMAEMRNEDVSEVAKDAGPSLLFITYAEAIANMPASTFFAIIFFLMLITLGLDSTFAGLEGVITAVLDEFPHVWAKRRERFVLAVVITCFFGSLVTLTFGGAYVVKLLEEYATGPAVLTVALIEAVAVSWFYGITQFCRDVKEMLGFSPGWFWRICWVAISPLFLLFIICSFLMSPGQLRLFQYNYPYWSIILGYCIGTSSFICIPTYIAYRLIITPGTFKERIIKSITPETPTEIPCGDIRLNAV
protocol_notes: APP^+ uptake, hSERT P561G
Format: cell-based
cond: S2 site mutant, read-out: SYR IC50 for Transport
pIC50: −log10 of the molar value.
measure: pIC50

COc1cc([C@@H]2OC[C@@H]3[C@H]2CO[C@H]3c2cc(OC)c(O)c(OC)c2)cc(OC)c1O [SYR, (-)-syringaresinol]; 4.33

====

system: hSERT G498T (Homo sapiens, UniProt P31645, G498T)
Construct: forward and reverse primers were used to amplify a full-length hSERT; expressed in transfected cells; host or cells: HeLa cells, transient, pcDNA3.1
protocol_notes: APP^+ uptake, hSERT G498T
Format: cell-based
cond: S2 site mutant, read-out: SYR IC50 for Transport
measure: IC50 (µM)

COc1cc([C@@H]2OC[C@@H]3[C@H]2CO[C@H]3c2cc(OC)c(O)c(OC)c2)cc(OC)c1O [SYR, (-)-syringaresinol]; 40.5

====

system: hSERT P560G (Homo sapiens, UniProt P31645, P560G)
Construct: forward and reverse primers were used to amplify a full-length hSERT; expressed in transfected cells; host or cells: HeLa cells, transient, pcDNA3.1
protocol_notes: ASP^+ binding, hSERT P560G
cond: S2 site mutant, read-out: SYR IC50 for Binding
measure: IC50 (µM)

COc1cc([C@@H]2OC[C@@H]3[C@H]2CO[C@H]3c2cc(OC)c(O)c(OC)c2)cc(OC)c1O [SYR, (-)-syringaresinol]; 14.7

====

system: hSERT WT (Homo sapiens, UniProt P31645)
Construct: forward and reverse primers were used to amplify a full-length hSERT; expressed in transfected cells; host or cells: HeLa cells (CCL-2), transient, pcDNA3.1
Sequence (P31645 whole entry): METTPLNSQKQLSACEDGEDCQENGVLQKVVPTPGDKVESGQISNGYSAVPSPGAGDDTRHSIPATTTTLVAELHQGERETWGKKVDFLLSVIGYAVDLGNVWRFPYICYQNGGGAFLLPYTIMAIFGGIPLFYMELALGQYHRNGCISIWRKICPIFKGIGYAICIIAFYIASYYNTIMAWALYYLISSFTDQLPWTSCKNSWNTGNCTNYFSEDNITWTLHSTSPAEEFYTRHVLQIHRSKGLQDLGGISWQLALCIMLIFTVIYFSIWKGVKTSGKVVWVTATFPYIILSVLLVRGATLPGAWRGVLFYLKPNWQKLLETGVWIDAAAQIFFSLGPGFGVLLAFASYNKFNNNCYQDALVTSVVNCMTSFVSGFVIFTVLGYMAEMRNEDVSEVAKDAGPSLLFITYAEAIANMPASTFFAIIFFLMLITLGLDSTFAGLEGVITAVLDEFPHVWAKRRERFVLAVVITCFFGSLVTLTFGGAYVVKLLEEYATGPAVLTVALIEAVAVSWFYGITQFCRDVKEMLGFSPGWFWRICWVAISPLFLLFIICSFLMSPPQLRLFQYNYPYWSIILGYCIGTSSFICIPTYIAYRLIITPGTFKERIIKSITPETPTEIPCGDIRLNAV
protocol_notes: ASP^+ binding, hSERT WT
cond: digitonin-permeabilized cells, read-out: SYR IC50 for Binding
measure: IC50 (µM)

COc1cc([C@@H]2OC[C@@H]3[C@H]2CO[C@H]3c2cc(OC)c(O)c(OC)c2)cc(OC)c1O [SYR, (-)-syringaresinol]; 0.96

====

system: hSERT R564A (Homo sapiens, UniProt P31645, R564A)
Construct: forward and reverse primers were used to amplify a full-length hSERT; expressed in transfected cells; host or cells: HeLa
Sequence (P31645 whole entry R564A): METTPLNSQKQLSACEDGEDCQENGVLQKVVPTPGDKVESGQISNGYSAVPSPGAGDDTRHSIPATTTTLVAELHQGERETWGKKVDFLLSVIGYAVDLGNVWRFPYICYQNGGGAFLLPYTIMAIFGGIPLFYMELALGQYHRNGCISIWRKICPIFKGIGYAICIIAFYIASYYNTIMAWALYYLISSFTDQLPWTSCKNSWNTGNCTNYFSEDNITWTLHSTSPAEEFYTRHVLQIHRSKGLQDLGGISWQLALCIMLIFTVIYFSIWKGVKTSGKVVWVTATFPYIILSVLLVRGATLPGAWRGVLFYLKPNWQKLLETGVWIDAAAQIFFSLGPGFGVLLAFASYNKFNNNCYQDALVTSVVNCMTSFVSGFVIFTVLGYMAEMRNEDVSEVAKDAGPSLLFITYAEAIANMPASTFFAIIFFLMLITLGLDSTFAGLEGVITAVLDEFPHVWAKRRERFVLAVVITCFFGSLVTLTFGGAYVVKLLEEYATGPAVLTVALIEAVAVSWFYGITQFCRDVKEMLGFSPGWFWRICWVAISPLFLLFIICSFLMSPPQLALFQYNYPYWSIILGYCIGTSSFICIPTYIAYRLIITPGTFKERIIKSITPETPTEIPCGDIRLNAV
protocol_notes: APP^+ uptake, hSERT R564A
Assay type: cell-based
cond: S2 site mutant, read-out: SYR IC50 for Transport
pIC50: −log10 of the molar value.
measure: pIC50

COc1cc([C@@H]2OC[C@@H]3[C@H]2CO[C@H]3c2cc(OC)c(O)c(OC)c2)cc(OC)c1O [SYR, (-)-syringaresinol]; 4.84

====

system: hSERT Q111N (Homo sapiens, UniProt P31645, Q111N)
Construct: forward and reverse primers were used to amplify a full-length hSERT; expressed in transfected cells; host or cells: HeLa cells, transient, pcDNA3.1
protocol_notes: APP^+ uptake, hSERT Q111N
Assay type: cell-based
cond: S2 site mutant, read-out: SYR IC50 for Transport
pIC50: −log10 of the molar value.
measure: pIC50

COc1cc([C@@H]2OC[C@@H]3[C@H]2CO[C@H]3c2cc(OC)c(O)c(OC)c2)cc(OC)c1O [SYR, (-)-syringaresinol]; 4.75

====

system: hSERT L563A (Homo sapiens, UniProt P31645, L563A)
Construct: forward and reverse primers were used to amplify a full-length hSERT; expressed in transfected cells; host or cells: HeLa
Sequence (P31645 whole entry L563A): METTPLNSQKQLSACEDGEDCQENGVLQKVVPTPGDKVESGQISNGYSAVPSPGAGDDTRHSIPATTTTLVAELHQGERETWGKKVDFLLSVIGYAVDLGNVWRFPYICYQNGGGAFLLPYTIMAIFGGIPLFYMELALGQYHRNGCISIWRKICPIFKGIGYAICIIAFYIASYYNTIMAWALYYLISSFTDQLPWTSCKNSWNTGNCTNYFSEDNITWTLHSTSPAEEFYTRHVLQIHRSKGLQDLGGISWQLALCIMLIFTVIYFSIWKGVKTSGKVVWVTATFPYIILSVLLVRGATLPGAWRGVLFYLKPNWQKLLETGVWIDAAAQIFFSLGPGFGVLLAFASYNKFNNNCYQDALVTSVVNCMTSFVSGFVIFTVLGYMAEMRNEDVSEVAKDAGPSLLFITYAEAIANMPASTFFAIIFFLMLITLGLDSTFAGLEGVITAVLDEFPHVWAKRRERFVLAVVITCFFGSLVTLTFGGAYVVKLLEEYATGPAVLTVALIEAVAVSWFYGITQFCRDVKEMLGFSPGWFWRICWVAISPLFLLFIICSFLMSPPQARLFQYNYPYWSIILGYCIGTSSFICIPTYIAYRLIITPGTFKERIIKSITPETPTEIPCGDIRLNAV
protocol_notes: ASP^+ binding, hSERT L563A
cond: S2 site mutant, read-out: SYR IC50 for Binding
measure: IC50 (µM)

COc1cc([C@@H]2OC[C@@H]3[C@H]2CO[C@H]3c2cc(OC)c(O)c(OC)c2)cc(OC)c1O [SYR, (-)-syringaresinol]; 39

====

system: hSERT T497A (Homo sapiens, UniProt P31645, T497A)
Construct: forward and reverse primers were used to amplify a full-length hSERT; expressed in transfected cells; host or cells: HeLa cells, transient, pcDNA3.1
protocol_notes: APP^+ uptake, hSERT T497A
Format: cell-based
cond: S2 site mutant, read-out: SYR IC50 for Transport
measure: IC50

COc1cc([C@@H]2OC[C@@H]3[C@H]2CO[C@H]3c2cc(OC)c(O)c(OC)c2)cc(OC)c1O [SYR, (-)-syringaresinol]; 10.6 µM

====

system: hSERT P561G (Homo sapiens, UniProt P31645, P561G)
Construct: forward and reverse primers were used to amplify a full-length hSERT; expressed in transfected cells; host or cells: HeLa
protocol_notes: ASP^+ binding, hSERT P561G
cond: S2 site mutant, read-out: SYR IC50 for Binding
measure: IC50 (µM)

COc1cc([C@@H]2OC[C@@H]3[C@H]2CO[C@H]3c2cc(OC)c(O)c(OC)c2)cc(OC)c1O [SYR, (-)-syringaresinol]; 131

====

system: hSERT D328A (Homo sapiens, UniProt P31645, D328A)
Construct: forward and reverse primers were used to amplify a full-length hSERT; expressed in transfected cells; host or cells: HeLa cells, transient, pcDNA3.1
protocol_notes: ASP^+ binding, hSERT D328A
cond: S2 site mutant, read-out: SYR IC50 for Binding
pIC50: −log10 of the molar value.
measure: pIC50

COc1cc([C@@H]2OC[C@@H]3[C@H]2CO[C@H]3c2cc(OC)c(O)c(OC)c2)cc(OC)c1O [SYR, (-)-syringaresinol]; 4.41

====

system: hSERT E494Q (Homo sapiens, UniProt P31645, E494Q)
Construct: forward and reverse primers were used to amplify a full-length hSERT; expressed in transfected cells; host or cells: HeLa cells, transient, pcDNA3.1
Sequence (P31645 whole entry E494Q): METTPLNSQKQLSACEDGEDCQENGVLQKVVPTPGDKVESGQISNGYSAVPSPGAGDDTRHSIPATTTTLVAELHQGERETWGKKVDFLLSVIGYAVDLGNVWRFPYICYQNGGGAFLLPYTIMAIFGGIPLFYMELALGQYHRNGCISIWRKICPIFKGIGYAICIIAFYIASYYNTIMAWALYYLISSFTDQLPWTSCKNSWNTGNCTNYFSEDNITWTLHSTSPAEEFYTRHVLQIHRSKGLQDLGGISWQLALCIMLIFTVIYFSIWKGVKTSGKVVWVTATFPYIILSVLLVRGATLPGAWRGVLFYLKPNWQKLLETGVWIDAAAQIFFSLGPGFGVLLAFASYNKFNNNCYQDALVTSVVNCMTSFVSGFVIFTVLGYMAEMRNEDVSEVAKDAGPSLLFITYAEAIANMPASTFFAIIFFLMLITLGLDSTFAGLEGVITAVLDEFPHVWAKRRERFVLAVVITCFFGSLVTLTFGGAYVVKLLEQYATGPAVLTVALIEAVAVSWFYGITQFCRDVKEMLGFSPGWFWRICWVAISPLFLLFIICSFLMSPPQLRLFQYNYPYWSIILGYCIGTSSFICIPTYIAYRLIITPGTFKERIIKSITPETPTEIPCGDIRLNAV
protocol_notes: ASP^+ binding, hSERT E494Q
cond: S2 site mutant, read-out: SYR IC50 for Binding
measure: IC50 (µM)

COc1cc([C@@H]2OC[C@@H]3[C@H]2CO[C@H]3c2cc(OC)c(O)c(OC)c2)cc(OC)c1O [SYR, (-)-syringaresinol]; 9.77

====

system: hSERT Y95F (Homo sapiens, UniProt P31645, Y95F)
Construct: forward and reverse primers were used to amplify a full-length hSERT; expressed in transfected cells; host or cells: HeLa
protocol_notes: ASP^+ binding, hSERT Y95F
cond: S1 site mutant, read-out: SYR IC50 for Binding
pIC50: −log10 of the molar value.
measure: pIC50

COc1cc([C@@H]2OC[C@@H]3[C@H]2CO[C@H]3c2cc(OC)c(O)c(OC)c2)cc(OC)c1O [SYR, (-)-syringaresinol]; 5.92
